Assay target: CD38 (Homo sapiens, UniProt P28907)
Test name: Determination of Ki and kchem by competitive method (NGD+ substrate, absorbance at 295 nm)
Type: biochemical
Experimental context: average of the three Kieff values; read-out: Kieff (Average of values)

{"columns": ["Compound", "Ki / nM"],
 "data": [
  ["NC(=O)c1ccc[n+]([C@H]2C[C@H](O)[C@@H](CO)O2)c1 [βNdR, β-1′-nicotinamide-2′-deoxyribose]", 2.9]
]}

----------
Assay target: CD38 (Homo sapiens, UniProt P28907)
Sequence (P28907 45-300): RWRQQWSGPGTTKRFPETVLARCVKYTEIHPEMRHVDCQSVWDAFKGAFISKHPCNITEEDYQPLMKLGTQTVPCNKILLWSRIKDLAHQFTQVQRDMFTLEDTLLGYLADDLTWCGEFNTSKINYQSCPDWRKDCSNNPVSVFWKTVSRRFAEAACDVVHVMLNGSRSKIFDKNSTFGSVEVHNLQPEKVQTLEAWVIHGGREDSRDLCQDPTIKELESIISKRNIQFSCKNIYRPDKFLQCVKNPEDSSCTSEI
Test name: Determination of Ki and kchem by competitive method (NGD+ substrate, absorbance at 295 nm)
Assay type: biochemical
Experimental context: listed as β-D-1′-nicotinamide-2′-deoxyribofuranoside; read-out: Kieff, effective inhibition constant (average)

{"columns": ["Compound", "Ki (nM)"],
 "data": [
  ["NC(=O)c1ccc[n+]([C@H]2C[C@H](O)[C@@H](CO)O2)c1 [βNdR, β-1′-nicotinamide-2′-deoxyribose]", 2.9]
]}
